What pIC50 was measured for each of the following?
- Test System: ratAChE (Rattus norvegicus)
- Construct: AChE from 5% rat cortex homogenate or human erythrocytes (Sigma Co.); from tissue; host or cells: 5% rat cortex homogenate
- Assay Explanation: biochemical
- Condition Info: from 5% rat cortex homogenate; read-out: IC50 ± SD ratAChE
Answers are plain numbers, as −log10 of the molar value.

Consider the reported pIC50 for these molecules:
[
  {
    "Molecule": "O=c1cc(-c2ccc(OCCCCN3CCN(Cc4ccccc4)CC3)cc2)oc2cc(OCCCCN3CCN(Cc4ccccc4)CC3)cc(O)c12 [Compound 10i]",
    "Recorded Endpoint": "pIC50",
    "Reported Measurement": 5.16
  },
  {
    "Molecule": "CC1CC(C)CN(CCCCCCOc2ccc(-c3cc(=O)c4c(O)cc(OCCCCCCN5CC(C)CC(C)C5)cc4o3)cc2)C1 (stereo not shown) [Compound 10v]",
    "Recorded Endpoint": "pIC50",
    "Reported Measurement": 5.09
  },
  {
    "Molecule": "O=C1CC(c2ccc(OCCCCN3CCN(Cc4ccccc4)CC3)cc2)Oc2cc(OCCCCN3CCN(Cc4ccccc4)CC3)cc(O)c21 (stereo not shown) [Compound 7i]",
    "Recorded Endpoint": "pIC50",
    "Reported Measurement": 5.21
  },
  {
    "Molecule": "O=C1CC(c2ccc(O)cc2)Oc2cc(OCCCCN3CCN(Cc4ccccc4)CC3)cc(O)c21 (stereo not shown) [Compound 5e]",
    "Recorded Endpoint": "pIC50",
    "Reported Measurement": 5.04
  },
  {
    "Molecule": "CCN(CCCCCCCCCCOc1cc(O)c2c(c1)OC(c1ccc(O)cc1)CC2=O)Cc1ccccc1 (stereo not shown) [Compound 5i]",
    "Recorded Endpoint": "pIC50",
    "Reported Measurement": 5.31
  }
]

Batch lookup, pIC50 per entry.
1. O=c1cc(-c2ccc(OCCCN3CCc4ccccc4C3)cc2)oc2cc(OCCCN3CCc4ccccc4C3)cc(O)c12 [Compound 10a]
2. O=c1cc(-c2ccc(OCCCCCCN3CCC(c4ccccc4)CC3)cc2)oc2cc(OCCCCCCN3CCC(c4ccccc4)CC3)cc(O)c12 [Compound 10t]

Reply:
[5.09, 5.23]

====

- Test System: huBuChE (Homo sapiens, UniProt P06276)
- Construct: BuChE from rat serum or human serum (Sigma Co.)
- Sequence (P06276 29-602): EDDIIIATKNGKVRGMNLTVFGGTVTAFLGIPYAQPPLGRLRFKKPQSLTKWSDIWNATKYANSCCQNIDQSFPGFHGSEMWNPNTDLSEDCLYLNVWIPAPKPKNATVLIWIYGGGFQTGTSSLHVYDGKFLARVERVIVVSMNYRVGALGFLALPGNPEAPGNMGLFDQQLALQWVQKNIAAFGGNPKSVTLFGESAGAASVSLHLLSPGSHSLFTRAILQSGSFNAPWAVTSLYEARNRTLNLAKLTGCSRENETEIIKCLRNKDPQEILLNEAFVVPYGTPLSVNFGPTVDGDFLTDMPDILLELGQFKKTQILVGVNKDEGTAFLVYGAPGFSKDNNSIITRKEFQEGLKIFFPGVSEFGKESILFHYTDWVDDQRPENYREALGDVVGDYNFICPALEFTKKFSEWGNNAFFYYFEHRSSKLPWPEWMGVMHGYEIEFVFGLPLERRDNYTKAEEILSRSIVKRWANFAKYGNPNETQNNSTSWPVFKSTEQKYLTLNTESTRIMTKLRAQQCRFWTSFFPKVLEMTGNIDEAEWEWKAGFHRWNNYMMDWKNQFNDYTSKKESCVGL
- Assay Explanation: biochemical
- Condition Info: from human serum; read-out: IC50 ± SD huBuChE
What IC50 was measured for each of the following?
One number for each entry, in µM.

Consider the reported IC50 for these compounds:
[
  {
    "Compound": "CCN(CCCCCOc1ccc(-c2cc(=O)c3c(O)cc(OCCCCCN(CC)Cc4ccccc4)cc3o2)cc1)Cc1ccccc1 [Compound 10k]",
    "Output Unit": "µM",
    "IC50": 4.5
  },
  {
    "Compound": "CCN(CCCCCOc1cc(O)c2c(c1)OC(c1ccc(O)cc1)CC2=O)Cc1ccccc1 (stereo not shown)",
    "Output Unit": "µM",
    "IC50": 6.3
  },
  {
    "Compound": "CCN(CCCCOc1ccc(-c2cc(=O)c3c(O)cc(OCCCCN(CC)Cc4ccccc4)cc3o2)cc1)Cc1ccccc1 [Compound 10h]",
    "Output Unit": "µM",
    "IC50": 3.7
  }
]

Continue with the next compound.
Query: // map CCN(CCCCCOc1ccc(-c2cc(=O)c3c(O)cc(OCCCCCN(CC)Cc4ccccc4OC)cc3o2)cc1)Cc1ccccc1OC [Compound 10l] to recorded IC50 (system: huBuChE (Homo sapiens, UniProt P06276))
Reply: 2.2

====

- Test System: ratAChE (Rattus norvegicus)
- Construct: AChE from 5% rat cortex homogenate or human erythrocytes (Sigma Co.); from tissue; host or cells: 5% rat cortex homogenate
- Sequence (P37136 32-614): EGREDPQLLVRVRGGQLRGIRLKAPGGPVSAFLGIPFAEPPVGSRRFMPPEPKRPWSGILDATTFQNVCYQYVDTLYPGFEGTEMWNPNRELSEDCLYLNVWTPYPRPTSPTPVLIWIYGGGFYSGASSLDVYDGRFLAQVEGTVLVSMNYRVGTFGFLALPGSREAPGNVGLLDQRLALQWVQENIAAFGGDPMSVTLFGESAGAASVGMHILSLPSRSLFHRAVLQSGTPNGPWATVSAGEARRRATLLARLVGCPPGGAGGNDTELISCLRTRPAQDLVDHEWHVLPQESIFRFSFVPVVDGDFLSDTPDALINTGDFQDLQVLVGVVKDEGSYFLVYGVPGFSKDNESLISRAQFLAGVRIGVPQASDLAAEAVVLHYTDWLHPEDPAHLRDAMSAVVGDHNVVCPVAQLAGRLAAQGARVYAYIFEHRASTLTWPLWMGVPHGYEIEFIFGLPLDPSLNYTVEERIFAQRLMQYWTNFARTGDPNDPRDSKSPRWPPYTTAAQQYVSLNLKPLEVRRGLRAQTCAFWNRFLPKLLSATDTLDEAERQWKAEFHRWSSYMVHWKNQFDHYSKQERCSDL
- Assay Explanation: biochemical
- Condition Info: from 5% rat cortex homogenate; read-out: IC50 ± SD ratAChE
What pIC50 was measured for each of the following?
One number for each entry, as −log10 of the molar value.

Consider the reported pIC50 for these molecules:
[
  {
    "Molecule": "CCN(CCCCOc1ccc(C2CC(=O)c3c(O)cc(OCCCCN(CC)Cc4ccccc4)cc3O2)cc1)Cc1ccccc1 (stereo not shown)",
    "Test System": "ratAChE (Rattus norvegicus)",
    "pIC50": 5.85
  },
  {
    "Molecule": "O=C1CC(c2ccc(O)cc2)Oc2cc(OCCCCCN3CCC(Cc4ccccc4)CC3)cc(O)c21 (stereo not shown)",
    "Test System": "ratAChE (Rattus norvegicus)",
    "pIC50": 5.60
  },
  {
    "Molecule": "O=C1CC(c2ccc(OCCCN3CCC(Cc4ccccc4)CC3)cc2)Oc2cc(OCCCN3CCC(Cc4ccccc4)CC3)cc(O)c21 (stereo not shown)",
    "Test System": "ratAChE (Rattus norvegicus)",
    "pIC50": 5.17
  }
]

Continue with the next molecule.
Query: // map CCN(CCCCOc1ccc(-c2cc(=O)c3c(O)cc(OCCCCN(CC)Cc4ccccc4)cc3o2)cc1)Cc1ccccc1 [Compound 10h] to recorded pIC50 (system: ratAChE (Rattus norvegicus))
Reply: 6.04

====

What IC50 was measured for each of the following?
- Test System: ratBuChE (Rattus norvegicus, UniProt Q9JKC1)
- Construct: BuChE from rat serum or human serum (Sigma Co.); from tissue; host or cells: rat serum
- Sequence (Q9JKC1 24-597): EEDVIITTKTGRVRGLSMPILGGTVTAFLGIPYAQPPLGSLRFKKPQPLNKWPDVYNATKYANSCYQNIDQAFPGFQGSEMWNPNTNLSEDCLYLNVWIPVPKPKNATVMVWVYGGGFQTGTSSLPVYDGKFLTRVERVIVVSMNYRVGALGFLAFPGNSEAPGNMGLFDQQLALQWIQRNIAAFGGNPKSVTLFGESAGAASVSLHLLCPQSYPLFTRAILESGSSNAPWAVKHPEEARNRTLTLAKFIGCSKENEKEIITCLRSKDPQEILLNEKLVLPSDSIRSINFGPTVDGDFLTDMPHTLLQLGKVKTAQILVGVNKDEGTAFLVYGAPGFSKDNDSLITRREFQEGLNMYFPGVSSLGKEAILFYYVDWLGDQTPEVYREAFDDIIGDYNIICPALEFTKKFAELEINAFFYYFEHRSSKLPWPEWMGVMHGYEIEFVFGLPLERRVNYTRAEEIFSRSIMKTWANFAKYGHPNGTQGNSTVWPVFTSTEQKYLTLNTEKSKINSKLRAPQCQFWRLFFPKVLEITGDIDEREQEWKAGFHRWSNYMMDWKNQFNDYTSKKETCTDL
- Assay Explanation: ratBuChE inhibition, modified Ellman's method
- Format: biochemical
One number for each entry, in µM.

Consider the reported IC50 for these compounds:
[
  {
    "Compound": "CC1CC(C)CN(CCCCCCOc2ccc(-c3cc(=O)c4c(O)cc(OCCCCCCN5CC(C)CC(C)C5)cc4o3)cc2)C1 (stereo not shown) [Compound 10v]",
    "Test System": "ratBuChE (Rattus norvegicus, UniProt Q9JKC1)",
    "IC50 / µM": 14.8
  },
  {
    "Compound": "O=C1CC(c2ccc(OCCCN3CCC(Cc4ccccc4)CC3)cc2)Oc2cc(OCCCN3CCC(Cc4ccccc4)CC3)cc(O)c21 (stereo not shown) [Compound 7c]",
    "Test System": "ratBuChE (Rattus norvegicus, UniProt Q9JKC1)",
    "IC50 / µM": 19.4
  },
  {
    "Compound": "O=c1cc(-c2ccc(OCCCCN3CCc4ccccc4C3)cc2)oc2cc(OCCCCN3CCc4ccccc4C3)cc(O)c12 [Compound 10g]",
    "Test System": "ratBuChE (Rattus norvegicus, UniProt Q9JKC1)",
    "IC50 / µM": 17.4
  },
  {
    "Compound": "O=C1CC(c2ccc(O)cc2)Oc2cc(OCCCCCN3CCC(Cc4ccccc4)CC3)cc(O)c21 (stereo not shown) [Compound 5g]",
    "Test System": "ratBuChE (Rattus norvegicus, UniProt Q9JKC1)",
    "IC50 / µM": 18.7
  }
]

Continue with the next compound.
Query: For CCN(CCCCCCOc1ccc(C2CC(=O)c3c(O)cc(OCCCCCCN(CC)Cc4ccccc4)cc3O2)cc1)Cc1ccccc1 (stereo not shown) [Compound 7l] , what is its reported IC50?
Reply: 15.1

====

- Assay Explanation: in vitro
- Condition Info: PAMPA
Recorded Endpoint: Papp at 100 μg/mL (×10⁻⁶ cm/s)
Numbers only, in ×10⁻⁶ cm/s.

[
  {
    "Compound": "CCN(CCCCCOc1cc(O)c2c(c1)OC(c1ccc(O)cc1)CC2=O)Cc1ccccc1 (centres unmarked)",
    "Output Unit": "×10⁻⁶ cm/s",
    "Papp at 100 μg/mL": 6.9
  }
]

Continue with the next compound.
Query: For CCn1cc(C(=O)O)c(=O)c2cc(F)c(N3CCNCC3)cc21 [Norfloxacin, reference compound] , what is its reported Papp at 100 μg/mL?
Reply: 0.13
